tested-target: human PPARα (Homo sapiens, UniProt Q07869)
Construct: amino acids S167-Y468
Sequence (Q07869 167-468): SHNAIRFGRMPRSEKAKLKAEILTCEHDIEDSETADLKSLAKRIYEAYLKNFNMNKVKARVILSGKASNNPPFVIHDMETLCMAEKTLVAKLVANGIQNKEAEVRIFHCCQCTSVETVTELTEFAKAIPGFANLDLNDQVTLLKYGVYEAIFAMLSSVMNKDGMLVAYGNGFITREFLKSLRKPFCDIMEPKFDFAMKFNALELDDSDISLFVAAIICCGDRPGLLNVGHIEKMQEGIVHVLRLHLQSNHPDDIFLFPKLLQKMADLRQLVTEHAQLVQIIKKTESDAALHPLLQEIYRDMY
protocol-summary: Cellular PPARalpha assay (stably transfected HEK PPARalpha reporter cell line, luciferase)
cond: 24 h incubation, luciferase readout
parameter-measured: EC50 (nM)

a: CCC(SCC1CCCC(OCc2nc(-c3ccc(C)cc3)oc2C)C1)C(=O)O (stereo not drawn)
b: Cc1ccc(-c2nc(CO[C@H]3CCC[C@@H](COC(C)(C)C(=O)O)C3)c(C)o2)cc1
c: CCCCCC(C(=O)O)[S+]([O-])CC1CCCC(OCc2nc(-c3ccc(C)cc3)oc2C)C1 (stereo not drawn)
Q: Which order do the items above take when sorted by EC50 from high to low? Answer by writing out the labels in the requested order.
Ans: c, b, a
